Value source: patent US20260242735A1

Overview of reported Mean % WT Binding across a group of binders:
# measurementTarget: human CD33 A108S (human, UniProt P20138 18-364)
# Sequence (P20138 18-364 A108S limits assumed): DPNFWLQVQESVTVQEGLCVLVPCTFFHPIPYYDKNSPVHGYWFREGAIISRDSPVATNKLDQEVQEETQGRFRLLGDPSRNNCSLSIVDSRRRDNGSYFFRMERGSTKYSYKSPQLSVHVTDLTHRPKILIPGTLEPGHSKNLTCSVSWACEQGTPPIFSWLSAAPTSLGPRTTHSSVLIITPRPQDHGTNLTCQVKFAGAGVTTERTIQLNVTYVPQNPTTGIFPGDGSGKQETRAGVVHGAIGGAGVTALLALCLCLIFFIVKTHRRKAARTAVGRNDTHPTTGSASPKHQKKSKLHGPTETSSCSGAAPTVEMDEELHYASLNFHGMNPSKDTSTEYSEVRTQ
# assayExplanation: flow cytometry on HEK293-T, alanine scan
The answer is to be given in % WT binding; state only the numeric part.

binder	readoutUnits	Mean % WT Binding
Refmab #4 (antibody, V domains shown, The alanine scan used IgG or Fab) VH: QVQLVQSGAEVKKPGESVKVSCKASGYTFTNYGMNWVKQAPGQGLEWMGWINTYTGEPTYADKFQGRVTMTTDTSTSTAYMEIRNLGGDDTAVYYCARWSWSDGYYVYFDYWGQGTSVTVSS VL: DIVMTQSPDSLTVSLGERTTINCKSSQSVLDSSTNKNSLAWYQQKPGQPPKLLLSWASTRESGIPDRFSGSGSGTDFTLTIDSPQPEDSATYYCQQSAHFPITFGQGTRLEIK	% WT binding	86.5
Refmab #1 (antibody, V domains shown, The alanine scan used IgG or Fab; also called hP67.6) VH: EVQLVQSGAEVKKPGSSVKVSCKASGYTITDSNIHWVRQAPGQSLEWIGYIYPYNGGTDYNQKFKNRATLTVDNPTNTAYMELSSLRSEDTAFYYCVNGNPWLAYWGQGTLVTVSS VL: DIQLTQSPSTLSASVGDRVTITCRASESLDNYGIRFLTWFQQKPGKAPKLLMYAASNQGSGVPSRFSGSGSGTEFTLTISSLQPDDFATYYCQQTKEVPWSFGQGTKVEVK	% WT binding	85.3
Refmab #3 (antibody, V domains shown, The alanine scan used IgG or Fab) VH: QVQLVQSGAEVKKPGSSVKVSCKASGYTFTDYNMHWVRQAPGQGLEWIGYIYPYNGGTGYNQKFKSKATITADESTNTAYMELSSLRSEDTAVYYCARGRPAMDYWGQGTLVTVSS VL: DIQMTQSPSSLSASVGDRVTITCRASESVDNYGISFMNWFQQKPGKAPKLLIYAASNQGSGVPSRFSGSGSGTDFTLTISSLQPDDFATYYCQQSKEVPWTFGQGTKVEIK	% WT binding	98

# evaluate next
Input line: Which Mean % WT Binding is listed for Refmab #2 (antibody, V domains shown, The alanine scan used IgG or Fab) VH: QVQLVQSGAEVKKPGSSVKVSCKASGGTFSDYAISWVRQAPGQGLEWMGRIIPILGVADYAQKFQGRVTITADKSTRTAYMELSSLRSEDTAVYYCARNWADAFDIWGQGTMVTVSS VL: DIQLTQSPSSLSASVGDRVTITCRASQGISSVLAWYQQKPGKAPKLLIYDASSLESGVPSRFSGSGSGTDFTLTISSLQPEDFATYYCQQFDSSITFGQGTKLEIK ?
Output line: 104
